normalized growth reference
test: chemical genetic growth profiling, strain panel (AID 1159580);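 note: tested at 20 µM; growth read once vehicle control cultures reached saturation at 30 °C; 1 = growth at the plate median or of vehicle wells; lower values mean less growth of the strain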; conditions: S. cerevisiae deletion strains, growth OD, locus YAL026C, strain drs2, stronger effect = lower value
The campaign covered roughly 5,500 compounds. About 2,000 (36%) were called active. Roughly 18% stayed inconclusive and do not appear here. The list shows a part of the results.
# output: bare number, no unit

Example entries and their recorded answers appear below.
>  <compound>
CCN(CC)CCOC(=O)c1ccc(N)cc1

>  <normalized growth>
0.989

$$$$
>  <compound>
COc1cc([C@@H]2c3cc4c(c(O)c3C[C@H]3COC(=O)[C@@H]32)OCO4)cc(OC)c1OC

>  <normalized growth>
0.992

$$$$
>  <compound>
COc1ccc2c(c1)O[C@H]1c3ccc(OC)cc3OC[C@@H]21

>  <normalized growth>
1.02

$$$$
>  <compound>
O=c1cc[nH]c(=S)[nH]1

>  <normalized growth>
0.987

$$$$
>  <compound>
COc1ccc(-c2coc3cc(OC)cc(OC)c3c2=O)cc1

>  <normalized growth>
0.985

$$$$

Q: Name the reported normalized growth value associated with the compound CCCCCCOc1ccccc1C(N)=O
Result: 0.75

Q: Name the reported normalized growth value associated with the compound COc1cc(OC)c2c(=O)c(-c3ccccc3)coc2c1
Result: 0.895

Q: Name the reported normalized growth value associated with the compound CO[C@@]1(NC(=O)CSCC#N)C(=O)N2C(C(=O)O)=C(CSc3nnnn3C)CSC21 (some centres not stated)
Result: 0.985

Q: Name the reported normalized growth value associated with the compound NC(CO)C(=O)NNCc1ccc(O)c(O)c1O (configuration not stated)
Result: 0.977

Q: Name the reported normalized growth value associated with the compound CCCCN(CCCC)CCCOC(=O)c1ccc(N)cc1
Result: 0.991

Q: Name the reported normalized growth value associated with the compound COc1ccc([C@H]2Oc3cc(OC)cc(OC)c3C[C@H]2O)cc1
Result: 0.995

Q: Name the reported normalized growth value associated with the compound CCCCOC(=O)c1ccccc1C(=O)OCCCC
Result: 0.989

###

assay: chemical genetic growth profiling, strain panel (AID 1159580);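 note: tested at 20 µM; growth read once vehicle control cultures reached saturation at 30 °C; 1 = growth at the plate median or of vehicle wells; lower values mean less growth of the strain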; conditions: S. cerevisiae deletion strains, growth OD, locus YER015W, strain faa2, stronger effect = lower value
The campaign covered roughly 5,500 compounds. About 2,000 (36%) were called active. Another 18% or so got no clear call; they are omitted. The list shows a part of the results.
metric: normalized growth
# output: bare number, no unit

Example entries and their recorded answers appear below.
>  <compound>
COc1c(OC)c2occc2c2oc(=O)ccc12

>  <normalized growth>
0.972

$$$$
>  <compound>
C#CCCCCCCCCCCCC(O)CC(O)CO (centres undefined)

>  <normalized growth>
0.972

$$$$
>  <compound>
COc1c2ccoc2c(OC)c2oc(=O)ccc12

>  <normalized growth>
0.912

$$$$
>  <compound>
CC(=O)OCC[C@H](C)CCC=C(C)C

>  <normalized growth>
0.993

$$$$
>  <compound>
CC(=O)OC1CCC2(C)C(=CC=C3C2CCC2(C)C3CCC2C(C)/C=C/C(C)C(C)C)C1(C)C (centres undefined)

>  <normalized growth>
1.03

$$$$

Q: Name the reported normalized growth value associated with the compound CC(C)C(C)/C=C/C(C)[C@H]1CCC2C3=CCC4CC(=O)CC[C@]4(C)C3CC[C@@]21C (some centres undefined)
Result: 1

Q: Name the reported normalized growth value associated with the compound NS(=O)(=O)c1cc2c(cc1Cl)NC(C(Cl)Cl)NS2(=O)=O (centres undefined)
Result: 0.977

Q: Name the reported normalized growth value associated with the compound CO/N=C(\C(=O)N[C@@H]1C(=O)N2C(C(=O)O)=C(CSc3nc(=O)c(O)nn3C)CS[C@H]12)c1csc(N)n1
Result: 0.977
